# Target system: SARS-CoV-2 M^pro (Severe acute respiratory syndrome coronavirus 2, UniProt P0DTD1)
# Test method notes: biochemical
# Test context: read-out: inhibition [%] SARS-CoV-2 Mpro, [I] = 1 µM
Measured quantity: inhibition at 1 µM (%)
Please respond with the number in % and leave the unit unwritten.

Ask | // inhibition at 1 µM lookup, key: O=C(Nc1ccc(C(F)(F)F)cc1)c1ccccc1[Se][Se]c1ccccc1C(=O)Nc1ccc(C(F)(F)F)cc1
Reply | 100

More entries:
Ask | // inhibition at 1 µM lookup, key: O=C(Nc1c(F)cccc1Cl)c1ccccc1[Se][Se]c1ccccc1C(=O)Nc1c(F)cccc1Cl
Reply | 43.1

Source of measurements: paper PMC10242237
